Numbers sourced from ChEMBL document CHEMBL3856187.

Biological target: CDK7/Cyclin H/MNAT1 (Homo sapiens, UniProt P50613)
Sequence (P51946 whole entry): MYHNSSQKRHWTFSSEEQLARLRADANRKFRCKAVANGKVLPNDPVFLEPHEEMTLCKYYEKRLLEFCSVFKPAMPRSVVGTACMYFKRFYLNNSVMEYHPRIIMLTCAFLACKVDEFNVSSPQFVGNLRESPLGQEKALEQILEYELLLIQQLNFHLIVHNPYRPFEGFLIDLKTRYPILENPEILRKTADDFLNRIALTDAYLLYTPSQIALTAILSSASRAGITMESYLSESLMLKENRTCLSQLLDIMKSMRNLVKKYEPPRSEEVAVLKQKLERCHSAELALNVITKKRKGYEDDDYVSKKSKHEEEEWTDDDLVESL
Sequence (P50613 whole entry): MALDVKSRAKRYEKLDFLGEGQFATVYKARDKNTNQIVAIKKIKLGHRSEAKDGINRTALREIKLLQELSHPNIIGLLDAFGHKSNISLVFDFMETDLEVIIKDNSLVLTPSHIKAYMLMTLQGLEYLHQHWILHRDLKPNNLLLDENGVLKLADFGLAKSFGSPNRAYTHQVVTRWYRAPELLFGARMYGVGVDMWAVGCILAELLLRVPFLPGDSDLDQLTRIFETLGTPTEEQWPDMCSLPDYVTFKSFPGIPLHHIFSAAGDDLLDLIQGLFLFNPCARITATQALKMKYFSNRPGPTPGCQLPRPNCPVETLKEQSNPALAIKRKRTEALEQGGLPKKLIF
Sequence (P51948 whole entry, further chain): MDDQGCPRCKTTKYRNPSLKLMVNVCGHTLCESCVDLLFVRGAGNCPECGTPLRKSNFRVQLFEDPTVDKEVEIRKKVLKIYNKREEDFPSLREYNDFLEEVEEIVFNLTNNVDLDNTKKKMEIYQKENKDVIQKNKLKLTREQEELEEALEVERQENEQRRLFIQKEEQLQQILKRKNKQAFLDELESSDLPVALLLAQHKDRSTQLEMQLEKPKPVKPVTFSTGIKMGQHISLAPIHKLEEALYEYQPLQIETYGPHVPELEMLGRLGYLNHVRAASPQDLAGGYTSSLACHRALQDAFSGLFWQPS
Assay: Inhibition of CDK7/cyclin H/MAT1 (unknown origin)
Format: protein-complex assay
readout: pIC50
# pIC50 = -log10(concentration in molar units)

// query Please provide the recorded pIC50 for CN1CC[C@@H](c2c(O)cc(O)c3c(=O)cc(-c4ccccc4Cl)oc23)[C@@H]1CO , tested on CDK7/Cyclin H/MNAT1 (Homo sapiens, UniProt P50613).
// result 5.54

----------
Target: Cyclin-dependent kinase 9 (Homo sapiens, UniProt P50750)
Sequence (P50750 whole entry): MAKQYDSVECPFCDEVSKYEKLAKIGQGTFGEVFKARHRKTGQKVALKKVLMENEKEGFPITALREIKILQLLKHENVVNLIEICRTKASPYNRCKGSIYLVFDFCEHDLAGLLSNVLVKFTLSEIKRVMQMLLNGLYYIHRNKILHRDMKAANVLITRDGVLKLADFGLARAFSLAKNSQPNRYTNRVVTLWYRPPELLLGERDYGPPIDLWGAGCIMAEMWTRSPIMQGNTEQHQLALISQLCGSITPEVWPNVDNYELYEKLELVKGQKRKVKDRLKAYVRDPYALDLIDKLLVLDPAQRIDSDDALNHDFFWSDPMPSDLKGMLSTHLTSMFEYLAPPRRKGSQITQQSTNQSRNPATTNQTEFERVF
Test: Inhibition of human CDK9 (unknown origin)
readout: Ki (µM)
Write the value in µM as a bare number.

// query Entry under review: COc1ccccc1-c1cc(Nc2ccc(F)c(NS(C)(=O)=O)c2)ncn1 . Reported Ki?
// result 0.017
